Cited source for all entries: ChEMBL document CHEMBL1201862

Test system: PC-3
Assay: NCI tumour cell line growth inhibition, 48 h
Calls of active or inactive are those of the source. No stated cut-off is given here; in the data, active = GI50 up to about 1.1 µM and inactive = higher.

{"columns": ["compound", "GI50"],
 "data": [
  ["Oc1ccc2ccccc2c1Cc1c(O)ccc2ccccc12", "17.5 µM (inactive)"],
  ["COc1ccc(/C(CC2OC(=O)c3ccccc32)=N\\NC(=O)C[N+](C)(C)C)cc1 (configuration not stated)", "47.8 µM (inactive)"],
  ["C[n+]1cn(-c2nc3ccccc3nc2[N-]S(=O)(=O)c2ccccc2)c2ccccc21", "> 100 µM (inactive)"],
  ["O=C1O/C(=C\\C=C\\CO)C=C1/C=C/CO [LISSOCLINOLIDE]", "14.3 µM (inactive)"],
  ["CC(=O)C(=C(I)I)c1ccccc1", "31.5 µM (inactive)"],
  ["O=C(Nc1cccc([N+](=O)[O-])c1)c1nnn(-c2cccc([N+](=O)[O-])c2)c1O", "> 100 µM (inactive)"],
  ["COc1cc2c3c(cc(Cl)nc3c1OC)C(=O)C(=O)N2", "14.5 µM (inactive)"],
  ["Cc1c2c(OCC(O)CN3CCN(c4ccccc4)CC3)nn(C)c(=O)c2c(C)n1-c1ccccc1 (configuration not stated)", "22 µM (inactive)"],
  ["O=C1CC(CC(O)[C@@H]2CCCC[C@@H]2O)CC(=O)N1c1ccccc1 (some centres not stated)", "> 100 µM (inactive)"],
  ["CCOC(=O)c1c(SC(=O)c2cc(OC)c(OC)c(OC)c2)n(-c2ccccc2)c(=S)n(-c2ccccc2)c1=O", "> 100 µM (inactive)"],
  ["O=C1/C(=C/c2ccccc2)CN(C(=O)OCc2ccccc2)C/C1=C\\c1ccccc1", "15 µM (inactive)"],
  ["CC1=NN(C(=O)CC(=O)Nc2ccccc2Cl)C(=O)C1/N=N\\c1ccc(S(=O)(=O)c2ccc(/N=N/C3C(=O)N(C(=O)CC(=O)Nc4ccccc4Cl)N=C3C)cc2)cc1 (configuration not stated)", "> 100 µM (inactive)"]
]}

###

System: SNB-19
Test: NCI tumour cell line growth inhibition, 48 h
The source made the active and inactive calls. No stated cut-off is given here; in the data, active = GI50 up to about 1.1 µM and inactive = higher. *1 amine or outer side, *2 acyl side, *3 side chain or, on linkers, in order; H or OH if unused. Where a SMILES comes first, the peptide text is derived from it. [ ]: non-standard residue; d: D form. The star is where a group is joined. ξ: configuration not given here. X26 = O=C([C@H]1CCC[C@H]1N[*:1])[*:2]; ξW = NC(Cc1c[nH]c2ccccc12)C(=O)O; ξF = NC(Cc1ccccc1)C(=O)O; Boc = CC(C)(C)OC(=O)*; ξK = NCCCCC(N)C(=O)O; ξT = CC(O)C(N)C(=O)O; tBu = CC(C)(C)*
Labels: active, inactive

{"columns": ["molecule", "category"],
 "data": [
  ["Nc1nc(N)c(-c2ccccc2)c(C(=O)Nc2ccc(Cl)c(Cl)c2)n1", "inactive"],
  ["CN1CCOC1(C)CO (stereo not given)", "inactive"],
  ["O=C(OCc1ccccc1)C(Cc1ccc(OCc2ccccc2)cn1)NC(=O)C(F)(F)F (stereo not given)", "inactive"],
  ["COc1ccc2c(c1)C=C([N+](=O)[O-])C(C1OC(C)(C)OC1C1COC(C)(C)O1)O2 (stereo not given)", "inactive"],
  ["CC(C)(C)OC(=O)NC(Cc1ccc(O)cn1)C(N)=O (stereo not given)", "inactive"],
  ["COc1ccc2c(c1)CC[C@@H]1[C@@H]2CC[C@]2(C)/C(=N/OCCN3CCCC3)CC[C@@H]12", "inactive"],
  ["O=S1(=O)OCCCOS(=O)(=O)C1Br", "inactive"],
  ["CC(OC(C)(C)C)C1NC(=O)C(CCCCNC(=O)OC(C)(C)C)NC(=O)C(Cc2c[nH]c3ccccc23)NC(=O)C(Cc2ccccc2)NC(=O)[C@H]2CCC[C@H]2NC(=O)C(Cc2ccccc2)NC1=O (stereo not given in full) (cyclo([X26][ξF][ξW][ξK](Boc)[ξT](tBu)[ξF]))", "inactive"],
  ["CC(=O)Oc1c(OC(C)C)cc(=O)n2ccsc12", "inactive"],
  ["O=C1c2ccccc2-c2nc3ccc(O)cc3n21", "inactive"],
  ["O=C(c1ccccc1)c1c(-c2ccccc2)n(-c2ccccc2)[nH]c(=O)c1=O", "inactive"],
  ["O=C(N/N=C/c1ccc(O)cc1)NNCCO", "inactive"],
  ["CC(=O)NNc1nc(C)c(C(=O)/C=C/c2cccc([N+](=O)[O-])c2)s1", "inactive"],
  ["[N-]=[N+]=NC[C@H]1OCO[C@H](CN=[N+]=[N-])[C@H]2OCCOCCOc3ccccc3OCCOCCO[C@@H]21", "inactive"],
  ["CCOC(=O)C1C=C2O[C@@H]3OC4(CCCCC4)O[C@@H]3C2[C@H]2C(=O)C=CC(=O)[C@@]12C(=O)OC (stereo not given in full)", "inactive"],
  ["CC(=O)OCC1OC(N2C(C)=C(C(C)=O)C(c3ccc(Cl)cc3)C(C#N)=C2S)C(OC(C)=O)C(OC(C)=O)C1OC(C)=O (stereo not given)", "inactive"],
  ["O=C(CCC(=O)Nc1cccc(Cl)c1)CC(=O)c1ccc(Cl)cc1", "inactive"],
  ["C#CCNC(CS)C(=O)O (stereo not given)", "inactive"],
  ["C/C(=N\\NS(=O)(=O)c1ccc([N+](=O)[O-])cc1)c1ccc[n+]([O-])n1", "inactive"],
  ["CN(CCNC(=O)c1c[nH]c2c1Cc1ccccc1-2)CCNC(=O)c1c[nH]c2c1Cc1ccccc1-2", "inactive"],
  ["Cc1c(C#N)c2nnn(-c3ccc(Cl)cc3)c(=O)n2c1-c1ccccc1", "active"],
  ["ON[C@H]1C[C@@H](n2cnc3c(NC4CC4)ncnc32)[C@H](O)[C@@H]1O", "inactive"],
  ["COC(OC)(c1ccccc1)C(Br)Br", "inactive"],
  ["COc1ccc2c(c1)C1OCCNC1CC2 (stereo not given)", "inactive"],
  ["C/C(=N\\NC(=O)C(N)=O)c1c(O)cc(C)oc1=O", "inactive"],
  ["O=C1CS(=O)(=O)C(c2cccc(Oc3ccccc3)c2)N1c1ccccc1 (stereo not given)", "inactive"],
  ["N#Cc1cnc(-n2[nH]c3c(c2=O)CCCC3)[nH]c1=O", "inactive"],
  ["COc1cc2c(cc1C1COc3cc4occc4cc3C1=O)OCO2 (stereo not given)", "inactive"],
  ["CC(=O)O[C@H]1CC[C@@]2(C)C(=CC[C@@H]3[C@@H]2CC[C@]2(C)c4c(C)n[nH]c4C[C@@H]32)C1", "inactive"],
  ["O=S(=O)(c1ccccc1)C1CN2OC1(S(=O)(=O)c1ccccc1)CC2c1ccc(Br)cc1 (stereo not given)", "inactive"],
  ["O=C1/C(=C\\c2ccccc2)c2ccccc2N1Cc1ccccc1", "inactive"],
  ["COc1cc(C2c3cc4c(cc3[C@@H](NCCN(C)C)C3COC(=O)[C@H]23)OCO4)cc(OC)c1O (stereo not given in full)", "active"],
  ["S=C1SSC2N=CC=CC12 (stereo not given)", "inactive"],
  ["CC1OC(Oc2c(-c3cc(O)c(O)c(O)c3)oc3cc(O)cc(O)c3c2=O)C(O)C(O)C1O (stereo not given)", "inactive"],
  ["S=C(N1CCN(c2ccccc2)CC1)N1CCN(c2ccccc2)CC1", "inactive"]
]}
